molecular target: human IL-13 variant (R130Q) (human, UniProt P35225 35-146); assay: cell-based or functional assay
Sequence (P35225 35-146 limits assumed, stated change not applied): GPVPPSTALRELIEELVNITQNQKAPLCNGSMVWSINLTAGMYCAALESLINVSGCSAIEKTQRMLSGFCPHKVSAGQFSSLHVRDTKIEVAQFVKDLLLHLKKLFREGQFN
Outcome: 1 for Potency (IC50), A-549 bioassay of at least 0.07 nM; -1 for anything lower.

Q: Is the recorded value of Potency (IC50), A-549 bioassay equal to or greater than 0.07 nM for this binder? 13C5-Chim (antibody, human IgG1, V domains shown, also called chimeric 13C5) VH: QVTLKESGPGILQPSQTLSLTCSFSGFSLSTSDMGVDWIRQPSGKGLEWLAHIWWDDVKRYNPALKSRLTISKDTSSSQVFLMLASVDTADTATYYCARTVSSGYIYYAMDYWGQGTSVTVSS VL: DIQMTQTASSLSASLGDRVTISCRASQDIRNYLNWYQRKPDGTVKLLIFYTSKLHSGVPSRFSGSGSGTDYSLTIRNLEQEDIATYFCQQGNTLPLTFGGGTKLEIKR
Ans: -1

Q: Is the recorded value of Potency (IC50), A-549 bioassay equal to or greater than 0.07 nM for this binder? 13C5.2 (antibody, human IgG1, V domains shown, Humanized) VH: EVTLKESGPVLVKPTETLTLTCTFSGFSLSTSDMGVDWIRQPPGKALEWLAHIWWDDVKRYNPALKSRLTISKDTSKSQVVLTMTNMDPVDTATYYCARTVSSGYIYYAMDYWGQGTTVTVSS VL: DIQMTQTPSSLSASVGDRVTISCRASQDIRNYLNWYQRKPGKVVKLLIFYTSKLHSGVPSRFSGSGSGTDYTLTISSLQPEDVATYFCQQGNTLPLTFGGGTKVEIKR
Ans: 1

Q: Is the recorded value of Potency (IC50), A-549 bioassay equal to or greater than 0.07 nM for this binder? 5G1.1 (antibody, human IgG1, V domains shown, Humanized) VH: EVQLVQSGAEVKKPGASVKVSCKASGYTFTTYGVSWVRQAPGQGLEWIGEIYPGNYNTYYNEKFRGKATMTTDTSTSTAYMELRSLRSDDTAVYYCSRWRTSYFSDYGYFDYWGQGTTVTVSS VL: DVVMTQSPLSLPVTLGQPASISCRSSQSLVHSHGNTYLHWYQQRPGQSPRLLIYTVSNRFSGVPDRFSGSGSGTDFTLKISRVEAEDVGVYYCSQSTHVPYTFGGGTKVEIKR
Ans: 1
